Reported growth by item:
# System: NCI/ADR-RES ovarian
# assay.remarks: NCI-60 one-dose screen, 48 h (100 = growth as untreated, 0 = no growth, -100 = all killed)
# reported.conditions: 10 µM unless noted
The panel holds about 83,000 compounds, 20% with a hit somewhere; the sample as a whole holds those more often. Active and inactive are the calls of the source. How the source made its calls: active means growth percent below 10; inactive means the rest.

Some solved cases for reference:
> print(dat)
                                   molecule    recorded.value
1  O=[N+]([O-])c1ccc(/C=C/C=C/c2ccc(S(=O)(=O)F)cc2)c(Cl)c1   104% (inactive)
2      Cc1cccc(N(C)c2cccc3c2C(=O)[Se]C3)c1C  13.6% (inactive)

Item under review: CCC1([N+](=O)[O-])COP(=O)(NCc2cccnc2)OC1 (stereo not drawn) . Reported growth?
112% (inactive)

For CC(=O)N(C)C1=Nc2ccc(Cl)cc2C(c2ccccc2)=[N+]([O-])C1 then?
111% (inactive)

Cc1ccc(N)cc1[As]=[As]c1cc(N)ccc1C (stereo not drawn) , same question.
53.8% (inactive)

Now consider COc1ccc(/C=C(/C(=O)N2CCCC2)c2cc(OC)c(OC)c(OC)c2)cc1N .
68.2% (inactive)

How about C[C@]12CCc3sc(-c4ccc(Cl)cc4)nc3C1=CC[C@@H]1[C@@H]2CC[C@]2(C)C(=O)CC[C@@H]12 ?
81.6% (inactive)

Same read-out for CCOP(=O)(OCC)Oc1ccc(Sc2ccc(OP(=O)(OCC)OCC)cc2)cc1 ?
93.7% (inactive)

Lookup CC1=C(SCCC(=O)OCC(=O)NCCC[Te]c2ccccc2)C(=O)c2ccccc2C1=O
-10.5% (active)

----------
# Tested on: 786-0 renal
# assay.remarks: NCI-60 one-dose screen, 48 h (100 = growth as untreated, 0 = no growth, -100 = all killed)
# reported.conditions: 10 µM unless noted
This is part of a sample that, as a whole, favours compounds with a hit. Of some 83,000 tested, about 20% had one in any assay.
endpoint.name: growth (%)
Reply numerically in %, unit not repeated.

The examples below pair each entry with its known result.
molecule	endpoint.name	unit	recorded.value
CN(Cc1cccnc1)N=O	growth	%	107
Cc1cc(CCl)c(C)cc1CCl	growth	%	36.9
COC1=CC(=O)OC(CCc2ccc3c(c2)OCO3)C1 (centres undefined)	growth	%	112

Data request, read-out growth, for COc1ccc(/C=C(/C(=O)N2CCCC2)c2cc(OC)c(OC)c(OC)c2)cc1N
24.5

Another molecule to look at: O=C(O)c1nn(Cc2ccc(Cl)cc2)c2ccccc12
108

----------
# Tested on: UACC-62 melanoma
# assay.remarks: NCI-60 one-dose screen, 48 h (100 = growth as untreated, 0 = no growth, -100 = all killed)
# reported.conditions: 10 µM unless noted
Compounds without any hit were thinned out: in the full panel of roughly 83,000, 20% have a hit.
Catalogue of molecules with associated growth
State the answer as a number, implicitly in %.

A selection of reference data follows.
> print(dat)
                                   molecule  endpoint.name  unit  recorded.value
1           COC[CH2][Hg][C]#[C][Hg][CH2]COC         growth     %             106
2  CC(C)(C)NCC(O)c1ccccc1Cl (stereo unspecified)         growth     %              24
3  Cc1ccc(C(=O)C2CN(C)CCC2(O)c2ccc(C)cc2)cc1 (stereo unspecified)         growth     %             117

State the recorded growth for this entry: O=C(O)CC(Br)C(=O)CBr (stereo unspecified)
102

Also need ClCCN(CCCl)c1nc(Cl)c(C2CC(c3ccc(Cl)cc3)=NN2c2cc(Cl)cc(Cl)c2)s1 (stereo unspecified) , thanks.
82.7

Entry to check: O=C(O)c1nn(Cc2ccc(Cl)cc2)c2ccccc12
102

----------
# Tested on: HL-60(TB) leukemia
# assay.remarks: NCI-60 one-dose screen, 48 h
# reported.conditions: 10 µM unless noted
Compounds without any hit were thinned out: in the full panel of roughly 83,000, 20% have a hit. Calls of active or inactive are those of the source. Rule for the calls: active = growth percent below 10; inactive = the rest.
I would appreciate it if you answered using one of these outcomes: active, inactive

These recorded examples may help you get a feel for the data.
compound	system.tested	assigned.class
NC(=O)CC(NC(=O)COc1ccc(Cl)cc1Cl)C(=O)O (configuration not stated)	HL-60(TB) leukemia	inactive
Cn1cc(-c2noc(-c3cn(C)c4ncc(F)cc34)n2)c2cc(Br)ccc21	HL-60(TB) leukemia	inactive
NC(=O)c1ccc(-c2c3ccccc3cc3c2ccc2ccccc23)cc1	HL-60(TB) leukemia	inactive
COc1cccc(NC(=O)OC(C)C)c1	HL-60(TB) leukemia	inactive
CCc1c(Cl)nc(N)nc1Nc1ccc(C)c(C)c1	HL-60(TB) leukemia	inactive

Field: outcome | Entry: CC(=O)Nc1nc(C)c(C(=O)N/N=C/c2cccs2)s1
inactive

Entry Nc1nc(N)c2c(n1)NC(c1cccc(Nc3ccnc4cc(C(F)(F)F)ccc34)c1)CC(c1ccccc1)=N2 (configuration not stated) please
inactive

Now consider CN1CCN(CCC(=O)Nc2cccc(-n3cc(-c4ccncc4)c(-c4ccc(Cl)c(O)c4)n3)c2)CC1 and answer again.
active

----------
# Tested on: HL-60(TB) leukemia
# assay.remarks: NCI-60 one-dose screen, 48 h (100 = growth as untreated, 0 = no growth, -100 = all killed)
# reported.conditions: 10 µM unless noted
The panel holds about 83,000 compounds, 20% with a hit somewhere; the sample as a whole holds those more often. Active and inactive are the calls of the source. The calls were made as follows: active = growth percent below 10; inactive = the rest.
Collected growth values appear next to each entry.

> print(dat)
                                   compound    recorded.value
1  COc1ccc(-c2cc(=O)[nH]c3c(OC)c4ccccc4c(OC)c23)cc1   -19.8% (active)
2              CN(C)CCC(=O)c1c[nH]c2ccccc12  96.5% (inactive)
3  CCN(CC)c1ccc(C(O)C2=CC(=O)c3ccccc3C2=O)cc1 (stereo unspecified)   -1.99% (active)
4  Cc1cccc(/C=C/c2c(C(=O)/C=C/c3ccccc3)c(C)nc3ccccc23)c1   -15.8% (active)

Lab note: need growth for CCOc1ccncc1[N+](=O)[O-] on HL-60(TB) leukemia, anyone have it?
103% (inactive)

Also NS(=O)(=O)c1nc[nH]c1[N+](=O)[O-] , if possible.
102% (inactive)

Now this one: COc1cc(NCCN(CC(C)C)CC(C)C)c2ncc(C)cc2c1
88.2% (inactive)

Entry c1csc(-c2c3ccc(=[N+]4CCCCC4)cc-3oc3cc(N4CCCCC4)ccc23)c1 please
-35.5% (active)

----------
# System: OVCAR-3 ovarian
# assay.remarks: NCI-60 one-dose screen, 48 h (100 = growth as untreated, 0 = no growth, -100 = all killed)
# reported.conditions: 10 µM unless noted
Compounds without any hit were thinned out: in the full panel of roughly 83,000, 20% have a hit.
endpoint.name: growth (%)
All answers are understood in %, so give the number only.

Example compounds with recorded growth:
compound	unit	growth
C[C@]12CC[C@H]3[C@@H](C[C@@H]4N=C(c5ccc(O)cc5)S[C@@]45C[C@H](O)CC[C@]35C)[C@@H]1CC[C@@H]2O	%	38.6
O=[N+]([O-])c1ccccc1N1CCNCC1	%	101
CSc1ccccc1NP1(=O)OCC(C)([N+](=O)[O-])CO1 (stereo not drawn)	%	107

Tell me reported growth for CC[C@@]1(C2O[C@@H](C3O[C@@](O)(CC)[C@H](C)C[C@@H]3C)C[C@@H]2C)CC[C@H]([C@]2(C)CCC3(C[C@H](O)[C@@H](C)[C@@H]([C@H](C)[C@@H](OC)[C@H](C)C(=O)O)O3)O2)O1 (stereo partly drawn) , tested with OVCAR-3 ovarian.
11

Please do the same for CC[C@]12C=CCN3CC[C@@]4(c5ccc(OC)cc5N(C)[C@H]4[C@@](O)(C(=O)OC)[C@@H]1OC(=O)CCCN1CCN(CCCC(=O)O[C@@H]4[C@]5(CC)C=CCN6CC[C@@]7(c8ccc(OC)cc8N(C)[C@H]7[C@@]4(O)C(=O)OC)[C@@H]65)CC1)[C@@H]32 as well.
-85.2

For CC(=O)Nc1ccc(Cc2ccc(NC(C)=O)cc2)cc1 then?
119

Another compound to look at: CC12CCC3C(CC=C4CC(O)CCC43C)C1C/C(=C\N1CCOCC1)C2=O (stereo not drawn)
116

Cool, now NC(=O)C(Cl)Cl
110

----------
# Tested on: HL-60(TB) leukemia
# assay.remarks: NCI-60 one-dose screen, 48 h
# reported.conditions: 10 µM unless noted
About 83,000 compounds went through this panel and 20% of them were active in at least one assay; those are over-represented in the sample as a whole. The source made the active and inactive calls. Rule for the calls: active = growth percent below 10; inactive = the rest.
Bench note: report the call from active, inactive

// outcome(item) with item = COc1ccc([C@@H]2[C@@H](Oc3ccccc3)C(=O)N2c2cc(OC)c(OC)c(OC)c2)cc1F
active

Please do the same for CC(=O)O[C@]1(C)C[C@H](O)[C@]2(O)C=CO[C@H](O[C@@H]3O[C@H](CO)[C@@H](O)[C@H](O)[C@H]3O)[C@@H]21 as well.
inactive

Can you check COc1ccc(-c2cc(-c3cccnc3)nc3sc4c(=O)[nH]c(-c5ccc(Cl)cc5)nc4c23)cc1OC next?
inactive

Next molecule up: COc1cccc(-c2cc3c(O)cc(C#N)cc3[nH]2)c1
inactive

And Clc1ccc(Nc2ccnc(N3CCN(c4ccnc5cc(Cl)ccc45)CC3)n2)cc1 ?
inactive
